Molecular target: T1, cMOAT2 peptide on HLA-A*02:01 (human)
T1 peptide: NVADIGLHDV
Assay: cytokine release

[
  {
    "BINDER": "SIG35α / TRBV27 Cl.1574 (TCR) alpha TRAV12-2 J35 CDR3: CAVSIGFGNVL beta TRBV27 TRBJ1-1 CDR3: CASSPWERINTEAFF",
    "binding result": "no recognition"
  },
  {
    "BINDER": "SIG35α / TRBV27 Cl.1086 (TCR) alpha TRAV12-2 J35 CDR3: CAVSIGFGNVL beta TRBV27 TRBJ1-2 CDR3: CASSLHGPGGYTF",
    "binding result": "no recognition"
  },
  {
    "BINDER": "SIG35α / TRBV27 Cl.1606 (TCR) alpha TRAV12-2 J35 CDR3: CAVSIGFGNVL beta TRBV27 TRBJ2-7 CDR3: CASSLLGSYEQYF",
    "binding result": "no recognition"
  }
]
